Test system: HS 578T breast
Experiment: NCI tumour cell line growth inhibition, 48 h
MEASURED_QUANTITY: log10(TGI) (log10 of the value in µM)
Scale: log10; quantity: TGI; unit before log: µM

Look over these answered cases.
COMPOUND: CC(C)(CN1CCCCC1)C(=O)CC(SCCS(=O)(=O)O)c1ccc(Cl)c(Cl)c1 (stereo not given)
MEASUREMENT_TARGET: HS 578T breast
log10(TGI): 0.85
//
COMPOUND: CCn1c(-c2cc3ccccc3cc2OC(=O)c2ccccc2)n[nH]c1=S
MEASUREMENT_TARGET: HS 578T breast
log10(TGI): 1.65
//
COMPOUND: COc1cc([N+](=O)[O-])c2ncccc2c1O
MEASUREMENT_TARGET: HS 578T breast
log10(TGI): 1.44
//
COMPOUND: Cc1cc(I)cc(CN(C)CCCCN2CCCC2)c1O
MEASUREMENT_TARGET: HS 578T breast
log10(TGI): 1.52
//
COMPOUND: NC(=O)CN1CCN(c2nc(N3CCCC3)c3nc(Cl)c(NCc4ccccc4)nc3n2)CC1
MEASUREMENT_TARGET: HS 578T breast
log10(TGI): 1.38

Prompt line: Please report the recorded log10(TGI) for Clc1cccc(Cl)c1C1ON=C(c2ccccc2)N1C12CC3CC(CC(C3)C1)C2 (stereo not given) .
Response line: 1.94

Prompt line: Please report the recorded log10(TGI) for `O=c1oc2ccccc2cc1-c1nc2ccccc2s1` .
Response line: 1.31

---

Test system: OVCAR-4 ovarian
Assay: NCI tumour cell line growth inhibition, 48 h; in the data active means GI50 below about 0.43 µM; inactive means the rest
In this exercise, the only acceptable responses are yes = active, no = inactive

Prompt line: What call does the record list for `CCN(CC)c1ccc(/C=N\NC(=O)c2cccc(Nc3ccnc(C(F)(F)F)c3)c2)c(O)c1` ?
Response line: yes

Prompt line: What call does the record list for `COCCn1cc(-c2csc(-c3c[nH]c4ccc(F)cc34)n2)c2cccnc21` ?
Response line: no

Prompt line: What call does the record list for `C=C1C(=O)O[C@H]2[C@H](OC(C)=O)[C@@H](C)CCC/C(C)=C/CC[C@]3(CO3)[C@H](O)C[C@@H]12` ?
Response line: no

Prompt line: What call does the record list for `O=C1/C(=C/c2ccc(Cl)c(Cl)c2)CN(C(=O)CCN2CCOCC2)C/C1=C\c1ccc(Cl)c(Cl)c1` ?
Response line: no

Prompt line: What call does the record list for `C/C(=N\n1c(N)c(C#N)c(-c2ccc(Cl)cc2)c(C#N)c1=O)c1cccnc1` ?
Response line: no

Prompt line: What call does the record list for `COCCOCCOCCOCCOc1ccc2c(c1)C(=O)c1nc3ncccc3c(=O)n1-2` ?
Response line: no

---

TGI values for the molecules below.
System: OVCAR-3 ovarian
Experiment: NCI tumour cell line growth inhibition, 48 h

Look over these answered cases.
MOLECULE: C[C@@H](CC(O)C(O)C(C)(C)O)C1CCC23CC12CCC1[C@@]2(C)CCC(=O)C(C)(C)C2CC(OC2OC(CO)C(O)C(O)C2O)[C@]13C (some centres undefined)
TGI: > 10 µM

MOLECULE: C1CCN2CC34CC(CC5CCCN(C6CCCC3N6)C54)C2C1 (centres undefined)
TGI: > 100 µM

MOLECULE: COCCOC(=O)CCn1cc(F)c(=O)[nH]c1=O
TGI: > 150 µg/mL

Prompt line: Please report the recorded TGI for `CCOc1ccc(N2C(N)=NC(N)=NC2(C)C)cc1` .
Response line: > 100 µM

Prompt line: Please report the recorded TGI for `Cc1cccc(/C=N/NC(=S)NC(C)(C)C)n1` .
Response line: > 100 µM

Prompt line: Please report the recorded TGI for `NC(=O)Cn1c(=O)[nH]c(=O)c2[nH]cnc21` .
Response line: > 100 µM

Prompt line: Please report the recorded TGI for C=C1C(=O)C23C(CC(OC(C)=O)C1[C@@H]2OC(C)=O)C1(C)C(OC(C)=O)CCC(C)(C)C1C[C@@H]3OC(C)=O (some centres undefined) .
Response line: 3.03 µM

Prompt line: Please report the recorded TGI for `NC(=O)Nc1n[nH]c(-c2ccccc2)n1` .
Response line: > 100 µM

Prompt line: Please report the recorded TGI for `Cc1ccc(N=Nc2cc(=O)[nH]c(=O)[nH]2)cc1C` .
Response line: 4.19 µM

src = PubChem BioAssay (NCI)
